Origin of values: ChEMBL document CHEMBL5500376

- ASSAY SUMMARY: Cytotoxicity against human KBV cells assessed as cell survival at 10 uM measured after 72 hrs incubation by MTT assay relative to control
- Format: functional
- CONDITION LABEL: read-out: Activity
As shown below, each of these molecules has a reported viability at 10 µM value.
Entry rule: numbers only, all in %.

CC(C)(C)OC(=O)N1CC(CC(=O)N[C@H]2CC[C@]3(C)[C@H]4C[C@@H](O)[C@@H]5[C@@H]([C@]6(C)CC[C@H](C(C)(C)O)O6)CC[C@@]5(C)[C@]4(C)CC[C@H]3C2(C)C)C1 :: 92
CC(C)(C)OC(=O)N1CCCC[C@H]1C(=O)N[C@H]1CC[C@]2(C)[C@H]3C[C@@H](O)[C@@H]4[C@@H]([C@]5(C)CC[C@H](C(C)(C)O)O5)CC[C@@]4(C)[C@]3(C)CC[C@H]2C1(C)C :: 102
CC(C)(O)[C@H]1CC[C@@](C)([C@H]2CC[C@]3(C)[C@@H]2[C@H](O)C[C@@H]2[C@@]4(C)CC[C@H](NC(=O)[C@@H]5CCNC5)C(C)(C)[C@@H]4CC[C@]23C)O1 :: 99
CC(C)(C)OC(=O)N1C[C@H](F)C[C@H]1C(=O)N[C@H]1CC[C@]2(C)[C@H]3C[C@@H](O)[C@@H]4[C@@H]([C@]5(C)CC[C@H](C(C)(C)O)O5)CC[C@@]4(C)[C@]3(C)CC[C@H]2C1(C)C :: 114
CC(C)(C)OC(=O)N1CC(F)(F)C[C@H]1C(=O)N[C@H]1CC[C@]2(C)[C@H]3C[C@@H](O)[C@@H]4[C@@H]([C@]5(C)CC[C@H](C(C)(C)O)O5)CC[C@@]4(C)[C@]3(C)CC[C@H]2C1(C)C :: 100

Now examine the next entry.
Data request, read-out viability at 10 µM, for CC(C)(O)[C@H]1CC[C@@](C)([C@H]2CC[C@]3(C)[C@@H]2[C@H](O)C[C@@H]2[C@@]4(C)CC[C@H](NC(=O)[C@@H]5CCC(=O)N5)C(C)(C)[C@@H]4CC[C@]23C)O1
100

----------
- ASSAY SUMMARY: Cytotoxicity against human KBV cells assessed as cell survival at 10 uM measured after 72 hrs incubation by MTT assay relative to control
- Assay type: functional
- CONDITION LABEL: read-out: Activity
As shown below, each of these compounds has a reported viability at 10 µM value.
Entry rule: numbers only, all in %.

Worked cases, answers included:
CC(C)(O)[C@H]1CC[C@@](C)([C@H]2CC[C@]3(C)[C@@H]2[C@H](O)C[C@@H]2[C@@]4(C)CC[C@H](NC(=O)[C@@H]5CCCN5)C(C)(C)[C@@H]4CC[C@]23C)O1 :: 100
CC(C)(C)OC(=O)N1CCC[C@@H]1C(=O)N[C@H]1CC[C@]2(C)[C@H]3C[C@@H](O)[C@@H]4[C@@H]([C@]5(C)CC[C@H](C(C)(C)O)O5)CC[C@@]4(C)[C@]3(C)CC[C@H]2C1(C)C :: 88
CC(C)(O)[C@H]1CC[C@@](C)([C@H]2CC[C@]3(C)[C@@H]2[C@H](O)C[C@@H]2[C@@]4(C)CC[C@H](NC(=O)[C@H]5CCCNC5)C(C)(C)[C@@H]4CC[C@]23C)O1 :: 94
CC(C)(C)OC(=O)N1CCC[C@H](C(=O)N[C@H]2CC[C@]3(C)[C@H]4C[C@@H](O)[C@@H]5[C@@H]([C@]6(C)CC[C@H](C(C)(C)O)O6)CC[C@@]5(C)[C@]4(C)CC[C@H]3C2(C)C)C1 :: 93
CC(C)(O)[C@H]1CC[C@@](C)([C@H]2CC[C@]3(C)[C@@H]2[C@H](O)C[C@@H]2[C@@]4(C)CC[C@H](NC(=O)[C@@H]5COCCN5)C(C)(C)[C@@H]4CC[C@]23C)O1 :: 89
CC(C)(C)OC(=O)N1CC(C(=O)N[C@H]2CC[C@]3(C)[C@H]4C[C@@H](O)[C@@H]5[C@@H]([C@]6(C)CC[C@H](C(C)(C)O)O6)CC[C@@]5(C)[C@]4(C)CC[C@H]3C2(C)C)C1 :: 91
CC(C)(O)[C@H]1CC[C@@](C)([C@H]2CC[C@]3(C)[C@@H]2[C@H](O)C[C@@H]2[C@@]4(C)CC[C@H](NC(=O)C5CNC5)C(C)(C)[C@@H]4CC[C@]23C)O1 :: 97
CC(C)(O)[C@H]1CC[C@@](C)([C@H]2CC[C@]3(C)[C@@H]2[C@H](O)C[C@@H]2[C@@]4(C)CC[C@H](NC(=O)[C@H]5C[C@@H](O)CN5)C(C)(C)[C@@H]4CC[C@]23C)O1 :: 98
CC(=O)N1CCC[C@H]1C(=O)N[C@H]1CC[C@]2(C)[C@H]3C[C@@H](O)[C@@H]4[C@@H]([C@]5(C)CC[C@H](C(C)(C)O)O5)CC[C@@]4(C)[C@]3(C)CC[C@H]2C1(C)C :: 97

Now examine the next entry.
Data request, read-out viability at 10 µM, for CC(C)(O)[C@H]1CC[C@@](C)([C@H]2CC[C@]3(C)[C@@H]2[C@H](O)C[C@@H]2[C@@]4(C)CC[C@H](NC(=O)[C@H]5CCCN5)C(C)(C)[C@@H]4CC[C@]23C)O1
109
